- Assayed Target: T1, recombinant tissue-type plasminogen activator (tPA) (human, UniProt P00750 36-562)
- T1 construct: Commercial full-length recombinant tPA; also called Alteplase; Actilyse
- T1 sequence (P00750 36-562 limits assumed): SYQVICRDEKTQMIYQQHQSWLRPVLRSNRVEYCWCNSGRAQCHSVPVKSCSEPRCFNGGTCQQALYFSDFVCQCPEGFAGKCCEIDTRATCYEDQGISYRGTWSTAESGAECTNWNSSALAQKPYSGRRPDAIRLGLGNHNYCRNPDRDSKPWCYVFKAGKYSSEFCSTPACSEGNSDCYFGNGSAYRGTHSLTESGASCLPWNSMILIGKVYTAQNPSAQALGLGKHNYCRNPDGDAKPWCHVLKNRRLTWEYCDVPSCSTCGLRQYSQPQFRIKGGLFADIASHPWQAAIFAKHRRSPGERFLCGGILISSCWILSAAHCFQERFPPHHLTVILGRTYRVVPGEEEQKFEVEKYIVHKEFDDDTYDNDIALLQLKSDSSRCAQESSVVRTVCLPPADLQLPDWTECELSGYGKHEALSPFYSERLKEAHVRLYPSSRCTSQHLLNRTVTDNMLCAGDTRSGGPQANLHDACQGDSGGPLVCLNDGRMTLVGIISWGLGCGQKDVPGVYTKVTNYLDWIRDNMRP
- Protocol Details: ELISA on Exiqon plates
pKd: −log10 of the molar value.
Experimental Readout: pKd

>>> reported_measurement("KCNTATCATQRLANFLVHSSNNFGAILSSTNVGSNTY [human islet amyloid polypeptide, full length (fl-hIAPP)]")
8.22
